tested on: Human dendritic cells; test: Induction of IL-12 production by DC (ELISA); assay type: cell-based; settings: DC isolated from individual A; 100 μg, 48 hours
Recorded IL-12 production by DC (fold increase compared to untreated DC), one value per entry.
readout-name: IL-12 production by DC (fold increase compared to untreated DC) (fold)

substance: 5′GGGTGG3′ [N3A]
reported-measurement: 1.0
//
substance: 5′GGGCGG3′ [N7B] (DNA, all phosphorothioate, methylation of C not given here)
reported-measurement: 1.8
//
substance: 5′GTGTGT3′ [N1A]
reported-measurement: 15.9

----------
tested on: Human dendritic cells; assay: Induction of IFN-gamma production by DC (ELISA); type: cell-based; details: DC isolated from individual A; 100 μg, 48 hours
Recorded IFN-gamma production by DC (fold increase compared to untreated DC), one value per entry.
readout-name: IFN-gamma production by DC (fold increase compared to untreated DC) (fold)

substance: 5′GGGTGG3′ [N3A]
uom: fold
reported-measurement: 1.0
//
substance: 5′GGTGGG3′ [N2A]
uom: fold
reported-measurement: 1.0
//
substance: 5′GGGGGG3′ [N5A] (unmodified DNA)
uom: fold
reported-measurement: 1.1
//
substance: 5′GTGTGT3′ [N1A]
uom: fold
reported-measurement: 0.8
//
substance: 5′GGGCGG3′ [N7B] (DNA, all phosphorothioate, methylation of C not given here)
uom: fold
reported-measurement: 1.1
//
substance: 5′ GTGTGT3′ [N1B]
uom: fold
reported-measurement: 0.9
//
substance: 5′GGGAGG3′ [N6B] (DNA, backbone not given here; further chemistry not fully specified)
uom: fold
reported-measurement: 1.1
//
substance: 5′GGGGGG3′ [N5B]
uom: fold
reported-measurement: 3.5
//
substance: 5′GGGAGG3′ [N6A] (unmodified DNA)
uom: fold
reported-measurement: 1.0
//
substance: 5′GGCCGG3′ [N4A] (DNA, all phosphodiester, methylation of C not given here)
uom: fold
reported-measurement: 1.0
//
substance: 5′GGCCGG3′ [N4B] (DNA, all phosphorothioate, methylation of C not given here)
uom: fold
reported-measurement: 1.0

----------
test system: Human dendritic cells; test: CD86 levels at the DC cell surface (flow cytometry); assay type: cell-based; settings: DC from individual B; 100 μg, 48 hours
Marks after values point to notes of the source that are not given here.
readout-name: The percentage of CD86^hi DC following treatment

substance: 5′GGGGGG3′ [N5A] (unmodified DNA)
tested-on: Human dendritic cells
reported-measurement: 20%
--
substance: 5′GTGTGT3′ [N1A]
tested-on: Human dendritic cells
reported-measurement: 10%
--
substance: 5′GGGAGG3′ [N6A] (unmodified DNA)
tested-on: Human dendritic cells
reported-measurement: 24** %
--
substance: 5′GGGAGG3′ [N6B] (DNA, backbone not given here; further chemistry not fully specified)
tested-on: Human dendritic cells
reported-measurement: 15%
--
substance: 5′GGGTGG3′ [N3A]
tested-on: Human dendritic cells
reported-measurement: 16%
--
substance: 5′GGGGGG3′ [N5B]
tested-on: Human dendritic cells
reported-measurement: 26** %

----------
tested on: Human dendritic cells; assay: Induction of IL-12 production by DC (ELISA); format: cell-based; settings: DC isolated from individual B; 100 μg, 48 hours
Recorded IL-12 production by DC (fold increase compared to untreated DC), one value per entry.
readout-name: IL-12 production by DC (fold increase compared to untreated DC) (fold)

substance: 5′GGGTGG3′ [N3B]
tested-on: Human dendritic cells
reported-measurement: 17.3

substance: 5′GGGGGG3′ [N5A] (unmodified DNA)
tested-on: Human dendritic cells
reported-measurement: 1.1

substance: 5′GGTGGG3′ [N2A]
tested-on: Human dendritic cells
reported-measurement: 6.8

substance: 5′GGGAGG3′ [N6A] (unmodified DNA)
tested-on: Human dendritic cells
reported-measurement: 1.0

substance: 5′GGTGGG3′ [N2B]
tested-on: Human dendritic cells
reported-measurement: 6.0

substance: 5′GGGAGG3′ [N6B] (DNA, backbone not given here; further chemistry not fully specified)
tested-on: Human dendritic cells
reported-measurement: 1.4

substance: 5′GTGTGT3′ [N1A]
tested-on: Human dendritic cells
reported-measurement: 17.8

substance: 5′GGGTGG3′ [N3A]
tested-on: Human dendritic cells
reported-measurement: 1.0

substance: 5′ GTGTGT3′ [N1B]
tested-on: Human dendritic cells
reported-measurement: 1.3

substance: 5′GGGGGG3′ [N5B]
tested-on: Human dendritic cells
reported-measurement: 17.8

----------
tested on: Human dendritic cells; test: CD80 levels at the DC cell surface (flow cytometry); format: cell-based; settings: DC from individual B; 100 μg, 48 hours
Recorded The percentage of CD80^hi DC following treatment, one value per entry.
readout-name: The percentage of CD80^hi DC following treatment (%)

substance: 5′GGTGGG3′ [N2B]
uom: %
reported-measurement: 7
//
substance: 5′GGGAGG3′ [N6B] (DNA, backbone not given here; further chemistry not fully specified)
uom: %
reported-measurement: 4
//
substance: 5′GGGTGG3′ [N3B]
uom: %
reported-measurement: 5
//
substance: 5′ GTGTGT3′ [N1B]
uom: %
reported-measurement: 11
//
substance: 5′GGGAGG3′ [N6A] (unmodified DNA)
uom: %
reported-measurement: 15
//
substance: 5′GGCCGG3′ [N4B] (DNA, all phosphorothioate, methylation of C not given here)
uom: %
reported-measurement: 9
//
substance: 5′GGGTGG3′ [N3A]
uom: %
reported-measurement: 12
//
substance: 5′GGGCGG3′ [N7B] (DNA, all phosphorothioate, methylation of C not given here)
uom: %
reported-measurement: 5
//
substance: 5′GGGGGG3′ [N5A] (unmodified DNA)
uom: %
reported-measurement: 18
//
substance: 5′GGCCGG3′ [N4A] (DNA, all phosphodiester, methylation of C not given here)
uom: %
reported-measurement: 11

----------
system: female BALB/C mice; test: Vaccination with hepatitis surface antigen (intramuscular), anti-HbsAg end-point dilution ELISA; assay type: in vivo; details: HbsAg 1 μg + Alum 10 μg + polynucleotide 10 μg i.m. day 0 and 21, plasma day 31

substance: 5′GGGTGG3′ [N3B]
End-point titers IgG total, mean ± SD: 287
--
substance: 5′GGGAGG3′ [N6B] (DNA, backbone not given here; further chemistry not fully specified)
End-point titers IgG total, mean ± SD: 551
--
substance: 5′GGGAGG3′ [N6A] (unmodified DNA)
End-point titers IgG total, mean ± SD: 439
--
substance: 5′GGGTGG3′ [N3A]
End-point titers IgG total, mean ± SD: 849

----------
Recorded Relative endocytic rate (normalized Δ MFV), one value per entry.
system: Human dendritic cells; assay: Endocytosis of FITC-dextran by DC; assay type: cell-based; details: DC from individual B, 100 μg, 24 hours, untreated control = 100
readout-name: Relative endocytic rate (normalized Δ MFV)

substance: 5′GGTGGG3′ [N2A]
tested-on: Human dendritic cells
reported-measurement: 334
--
substance: 5′GGGGGG3′ [N5A] (unmodified DNA)
tested-on: Human dendritic cells
reported-measurement: 209
--
substance: 5′GGGAGG3′ [N6B] (DNA, backbone not given here; further chemistry not fully specified)
tested-on: Human dendritic cells
reported-measurement: 23
--
substance: 5′GGGTGG3′ [N3B]
tested-on: Human dendritic cells
reported-measurement: 211
--
substance: 5′GGTGGG3′ [N2B]
tested-on: Human dendritic cells
reported-measurement: 148
--
substance: 5′GGGGGG3′ [N5B]
tested-on: Human dendritic cells
reported-measurement: 151
--
substance: 5′GGGTGG3′ [N3A]
tested-on: Human dendritic cells
reported-measurement: 156

----------
test system: Human dendritic cells; assay: CD80 levels at the DC cell surface (flow cytometry); format: cell-based; details: DC from individual B; 100 μg, 48 hours
Marks after values point to notes of the source that are not given here.
Recorded The percentage of CD80^hi DC following treatment, one value per entry.
readout-name: The percentage of CD80^hi DC following treatment

substance: 5′GGGGGG3′ [N5B]
reported-measurement: 3%
//
substance: 5′GGTGGG3′ [N2A]
reported-measurement: 25** %
//
substance: 5′GTGTGT3′ [N1A]
reported-measurement: 45** %

----------
system: Human dendritic cells; assay: Induction of IL-12 production by DC (ELISA); assay type: cell-based; conditions: DC isolated from individual C; 100 μg, 48 hours
readout-name: IL-12 production by DC (fold increase compared to untreated DC) (fold)

substance: 5′GGCCGG3′ [N4A] (DNA, all phosphodiester, methylation of C not given here)
tested-on: Human dendritic cells
reported-measurement: 1.0
//
substance: 5′GGGTGG3′ [N3A]
tested-on: Human dendritic cells
reported-measurement: 1.0
//
substance: 5′GTGTGT3′ [N1A]
tested-on: Human dendritic cells
reported-measurement: 2.1
//
substance: 5′ GTGTGT3′ [N1B]
tested-on: Human dendritic cells
reported-measurement: 1.1
//
substance: 5′GGGGGG3′ [N5A] (unmodified DNA)
tested-on: Human dendritic cells
reported-measurement: 1.0
//
substance: 5′GGGCGG3′ [N7B] (DNA, all phosphorothioate, methylation of C not given here)
tested-on: Human dendritic cells
reported-measurement: 1.0
//
substance: 5′GGGGGG3′ [N5B]
tested-on: Human dendritic cells
reported-measurement: 15.0
//
substance: 5′GGTGGG3′ [N2A]
tested-on: Human dendritic cells
reported-measurement: 1.6
//
substance: 5′GGCCGG3′ [N4B] (DNA, all phosphorothioate, methylation of C not given here)
tested-on: Human dendritic cells
reported-measurement: 2.6
//
substance: 5′GGGCGG3′ [N7A] (DNA, all phosphodiester, methylation of C not given here)
tested-on: Human dendritic cells
reported-measurement: 0.9
//
substance: 5′GGGAGG3′ [N6A] (unmodified DNA)
tested-on: Human dendritic cells
reported-measurement: 1.0
